- system.tested: rat FAAH (Rattus norvegicus)
- Construct: made in house; host or cells: E. coli
- Sequence (P97612 whole entry): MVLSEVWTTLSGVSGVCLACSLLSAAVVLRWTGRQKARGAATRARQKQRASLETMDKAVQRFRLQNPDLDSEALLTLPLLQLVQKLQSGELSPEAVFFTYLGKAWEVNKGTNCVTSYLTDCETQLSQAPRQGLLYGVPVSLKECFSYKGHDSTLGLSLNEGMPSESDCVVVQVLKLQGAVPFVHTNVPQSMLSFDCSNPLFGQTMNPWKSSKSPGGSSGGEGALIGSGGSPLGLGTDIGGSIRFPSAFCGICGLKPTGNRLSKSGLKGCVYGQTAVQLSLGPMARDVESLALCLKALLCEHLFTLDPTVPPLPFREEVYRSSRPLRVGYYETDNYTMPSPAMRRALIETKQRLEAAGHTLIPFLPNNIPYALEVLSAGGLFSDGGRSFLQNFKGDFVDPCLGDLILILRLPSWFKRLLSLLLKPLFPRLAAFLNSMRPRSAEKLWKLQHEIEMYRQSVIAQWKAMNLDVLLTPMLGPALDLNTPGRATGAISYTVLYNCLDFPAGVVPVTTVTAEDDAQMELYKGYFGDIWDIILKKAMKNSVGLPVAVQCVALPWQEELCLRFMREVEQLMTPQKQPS
- assay.notes: FAAH assay, rat FAAH enzyme inhibition (kinact/Ki)
- Assay type: biochemical
- run.parameters: oleamide substrate 50 μM, 30° C.
measured.attribute: rFAAH kinact/Ki (M⁻¹ s⁻¹)

{"compound": "Cc1noc(NC(=O)N2CCC3(CC(c4ccc(F)c(Cl)c4)C3)C(C)C2)c1C (single isomer, unassigned) [Example 42a]", "system.tested": "rat FAAH (Rattus norvegicus)", "rFAAH kinact/Ki (M⁻¹ s⁻¹)": 3040}
{"compound": "Cc1noc(NC(=O)N2CCC3(CC(c4ccc(F)c(Cl)c4)C3)C(C)C2)c1C (single isomer, unassigned) [Example 42b]", "system.tested": "rat FAAH (Rattus norvegicus)", "rFAAH kinact/Ki (M⁻¹ s⁻¹)": 49.4}

(I) Cc1noc(NC(=O)N2CCC3(CC(c4ccc(F)c(Cl)c4)C3)C(C)C2)c1C (single isomer, unassigned) [Example 42d]
(II) Cc1noc(NC(=O)N2CCC3(CC(c4ccc(F)c(Cl)c4)C3)C(C)C2)c1C (single isomer, unassigned) [Example 42c]
For this pair, I and II , which shows a numerically higher rFAAH kinact/Ki? In your reply, give the label of the chosen option.
II
